- Type: in vitro ADME
- test.conditions: human, plasma
Residues, ends and D or L forms follow the SMILES beside them. *: point of attachment. DOTA = O=C(O)CN1CCN(CC(=O)O)CCN(CC(=O)*)CCN(CC(=O)O)CC1; AEEA = NCCOCCOCC(=O)O
Listed here are molecules together with their documented remaining at 4 h.
The figure you give is taken to be in %; do not add the unit.

molecule: NCCCC[C@H](NC(=O)CNC(=O)CNC(=O)CNC(=O)CNC(=O)COCCOCCNC(=O)CN1CCN(CC(=O)O)CCN(CC(=O)O)CCN(CC(=O)O)CC1)C(=O)NCC(=O)NCC(=O)NCC(=O)NCC(=O)O [^68Ga-DOTAVAP-PEG-P1, metal not drawn] ({DOTA-AEEA}-GGGGKGGGG-OH)
observed.result: 89

Challenge: Which remaining at 4 h is listed for NCCCC[C@H](NC(=O)CNC(=O)CNC(=O)CNC(=O)CNC(=O)CN1CCN(CC(=O)O)CCN(CC(=O)O)CCN(CC(=O)O)CC1)C(=O)NCC(=O)NCC(=O)NCC(=O)NCC(=O)O [^68Ga-DOTAVAP-P1, metal not drawn] ({DOTA}-GGGGKGGGG-OH) ?
Response given: 88
